# Test system: NCI-H929 complex spheroids, viability % test/control
# assay-text: Anticancer human tumor NCI-H929 cell line growth inhibition [RAS]; active means viability on the fitted dose curve at most 10% of control; inactive means the rest;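 further: compound exposure lasted seven days before viability was read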
# condition-label: second compound 0.3 µM; first compound 0.1 µM
Classes used: active, inactive

• O=C(c1ccc(F)c(F)c1Nc1ccc(I)cc1F)N1CC(O)([C@@H]2CCCCN2)C1 + CCn1c(-c2cccnc2C(C)OC)c2c3cc(ccc31)N1CCOC(CC(NC(=O)C(C(C)C)N(C)C(=O)C3(F)CCN(C(=O)C#CC(C)(C)N(C)C)CC3)C(=O)N3CCCC(N3)C(=O)OCC(C)(C)C2)C1 = inactive
• NC1c2ccccc2OC12CCN(c1cnc3c(N4CCCc5ncccc54)n[nH]c3n1)CC2 (stereo not drawn) + CCn1c(-c2cc(N3CCN(C)CC3)cnc2C(C)OC)c2c3cc(ccc31)-c1csc(n1)CC(NC(=O)C1CC1C)C(=O)N1CCCC(N1)C(=O)OCC(C)(C)C2 = active
• CC(Nc1ccc2c(c1)OCCn1cc(N3C(=O)OCC3C(F)F)nc1-2)C(N)=O (stereo not drawn) + CCn1c(-c2cccnc2C(C)OC)c2c3cc(ccc31)N1CCOC(CC(NC(=O)C(C(C)C)N(C)C(=O)C3(F)CCN(C(=O)C#CC(C)(C)N(C)C)CC3)C(=O)N3CCCC(N3)C(=O)OCC(C)(C)C2)C1 = inactive
• O=C(c1ccc(F)c(F)c1Nc1ccc(I)cc1F)N1CC(O)([C@@H]2CCCCN2)C1 + CCn1c(-c2cc(N3CCN(C)CC3)cnc2C(C)OC)c2c3cc(ccc31)-c1csc(n1)CC(NC(=O)C1CC1C)C(=O)N1CCCC(N1)C(=O)OCC(C)(C)C2 = active
• CC(C)NCC(C(=O)N1CCN(c2ncnc3c2C(C)CC3O)CC1)c1ccc(Cl)cc1 (stereo not drawn) + CCn1c(-c2cccnc2C(C)OC)c2c3cc(ccc31)N1CCOC(CC(NC(=O)C(C(C)C)N(C)C(=O)C3(F)CCN(C(=O)C#CC(C)(C)N(C)C)CC3)C(=O)N3CCCC(N3)C(=O)OCC(C)(C)C2)C1 = inactive
• CC(=O)OC12COC1CC(O)C1(C)C(=O)C(O)C3=C(C)C(OC(=O)C(O)C(NC(=O)OC(C)(C)C)c4ccccc4)CC(O)(C(OC(=O)c4ccccc4)C21)C3(C)C (stereo not drawn) + CCn1c(-c2cc(N3CCN(C)CC3)cnc2C(C)OC)c2c3cc(ccc31)-c1csc(n1)CC(NC(=O)C1CC1C)C(=O)N1CCCC(N1)C(=O)OCC(C)(C)C2 = active
• Cc1nc(N2CCC3(CC2)COC(C)C3N)c(CO)nc1Sc1ccnc(N)c1Cl (stereo not drawn) + CCn1c(-c2cccnc2C(C)OC)c2c3cc(ccc31)N1CCOC(CC(NC(=O)C(C(C)C)N(C)C(=O)C3(F)CCN(C(=O)C#CC(C)(C)N(C)C)CC3)C(=O)N3CCCC(N3)C(=O)OCC(C)(C)C2)C1 = inactive
• CCN1CCN(Cc2ccc(Nc3ncc(F)c(-c4cc(F)c5nc(C)n(C(C)C)c5c4)n3)nc2)CC1 + CCn1c(-c2cccnc2C(C)OC)c2c3cc(ccc31)N1CCOC(CC(NC(=O)C(C(C)C)N(C)C(=O)C3(F)CCN(C(=O)C#CC(C)(C)N(C)C)CC3)C(=O)N3CCCC(N3)C(=O)OCC(C)(C)C2)C1 = inactive

* * *

# Tested on: NCI-H929 complex spheroids, viability % test/control
# assay-text: Anticancer human tumor NCI-H929 cell line growth inhibition [RAS]; active = viability on the fitted dose curve at most 10% of control; inactive = the rest;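 further: compound exposure lasted seven days before viability was read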
# condition-label: second compound 0.0316 µM; first compound 0.316 µM
Classes used: active, inactive

* CC(=O)OC12COC1CC(O)C1(C)C(=O)C(O)C3=C(C)C(OC(=O)C(O)C(NC(=O)OC(C)(C)C)c4ccccc4)CC(O)(C(OC(=O)c4ccccc4)C21)C3(C)C (configuration not stated) + C#Cc1c(F)ccc2cc(O)cc(-c3ncc4c(N5CC6CCC(C5)N6)nc(OCC56CCCN5CC(F)C6)nc4c3F)c12 | active
* Nc1ccn(C2OC(CO)C(O)C2(F)F)c(=O)n1 (configuration not stated) + C=CC(=O)N1CCN(c2nc(OCC3CCCN3C)nc3c(F)c(-c4nc(N)cc(C)c4C(F)(F)F)c(Cl)cc23)C(C)C1 | active
* NC1c2ccccc2OC12CCN(c1cnc3c(N4CCCc5ncccc54)n[nH]c3n1)CC2 (configuration not stated) + C=CC(=O)N1CCN(c2nc(OCC3CCCN3C)nc3c(F)c(-c4nc(N)cc(C)c4C(F)(F)F)c(Cl)cc23)C(C)C1 | inactive
* C=CC(=O)N1CCN(c2nc(OCC3CCCN3C)nc3c(F)c(-c4nc(N)cc(C)c4C(F)(F)F)c(Cl)cc23)C(C)C1 (configuration not stated) + C#Cc1c(F)ccc2cc(O)cc(-c3ncc4c(N5CC6CCC(C5)N6)nc(OCC56CCCN5CC(F)C6)nc4c3F)c12 | inactive
* C[C@@H](NC(=O)c1ncnc(N)c1Cl)c1ncc(C(=O)Nc2cc(C(F)(F)F)c(Cl)cn2)s1 + C=CC(=O)N1CCN(c2nc(OCC3CCCN3C)nc3c(F)c(-c4nc(N)cc(C)c4C(F)(F)F)c(Cl)cc23)C(C)C1 | inactive
* CCN1CCN(Cc2ccc(Nc3ncc(F)c(-c4cc(F)c5nc(C)n(C(C)C)c5c4)n3)nc2)CC1 + C#Cc1c(F)ccc2cc(O)cc(-c3ncc4c(N5CC6CCC(C5)N6)nc(OCC56CCCN5CC(F)C6)nc4c3F)c12 | inactive
* CC(Nc1ccc2c(c1)OCCn1cc(N3C(=O)OCC3C(F)F)nc1-2)C(N)=O (configuration not stated) + C#Cc1c(F)ccc2cc(O)cc(-c3ncc4c(N5CC6CCC(C5)N6)nc(OCC56CCCN5CC(F)C6)nc4c3F)c12 | inactive

Reference source: PubChem BioAssay AID2060884
